method_description: Cytotoxicity against human A253 cells after 96 hrs by SRB assay
Format: functional, cell-based
measurement_setup: Homo sapiens, A253, 96 h; read-out: IC50
pIC50: −log10 of the molar value.
metric: pIC50

                                smiles_text  metric  assay_result
0  C=C(C)[C@@H]1CC[C@]2(C(=O)OC)CC[C@]3(C)[C@H](CC[C@@H]4[C@@]5(C)C[C@@H](CSCCO)C(=O)C(C)(C)[C@@H]5CC[C@]43C)[C@@H]12   pIC50          5.82
1  C=C1C[C@]2(C)[C@H]3CC[C@@H]4[C@H]5[C@H](C(=C)C)CC[C@]5(C(=O)N5CCSCC5)CC[C@@]4(C)[C@]3(C)CC[C@H]2C(C)(C)C1=O   pIC50          5.85
2  C=C1C[C@]2(C)[C@H]3CC[C@@H]4[C@H]5[C@H](C(=C)C)CC[C@]5(C=O)CC[C@@]4(C)[C@]3(C)CC[C@H]2C(C)(C)C1=O   pIC50          6.00
